growth for assorted compounds
Test system: COLO 205 colon
Experiment: NCI-60 one-dose screen, 48 h (100 = growth as untreated, 0 = no growth, -100 = all killed)
Details: 10 µM
Compounds without any hit were thinned out: in the full panel of roughly 83,000, 20% have a hit.
Reported Endpoint: growth (%)

compound=CC1(C)N=C(N)N=C(N)N1c1cccc(C#N)c1 unit_tag=% measurement=66.8
compound=COc1cc(-c2nn(-c3ccc(NC(=O)NCCNS(=O)(=O)c4ccc(F)cc4)cc3)cc2-c2ccncc2)ccc1Cl unit_tag=% measurement=-63.5
compound="COc1cc2ncnc(NC3CCC(O)CC3)c2cc1OC (stereo not given)" unit_tag=% measurement=102
compound=COc1ccc(CCN2CCC(Nc3nc4ccccc4n3Cc3ccc(F)cc3)CC2)cc1 unit_tag=% measurement=-65.7
compound=O=C(N/N=C/c1cc([N+](=O)[O-])ccc1O)c1cccc2ccccc12 unit_tag=% measurement=48.9
compound=CCOC(=O)c1cc(C(=O)c2cc(OC)cc(OC)c2)n2ncc3ccccc3c12 unit_tag=% measurement=19.1
compound=S=C1N(c2ccccc2)CN(C2CCCCC2)CN1c1ccccc1 unit_tag=% measurement=112
compound=O=C1NC(=O)c2c(CCCSc3nc4ccccc4c(=O)n3CCc3ccccc3)cccc21 unit_tag=% measurement=118
compound="Cc1ccc(C(SCC(N)C(=O)O)(c2ccc(C)cc2)c2ccc(C)cc2)cc1 (stereo not given)" unit_tag=% measurement=0.644
compound="CCCC1(CN2c3ccccc3Sc3ccc(Cl)cc32)CCN(CC)C1 (stereo not given)" unit_tag=% measurement=-80.8

---

Tested on: BT-549 breast
Test: NCI-60 one-dose screen, 48 h
Conditions: 10 µM
This is part of a sample that, as a whole, favours compounds with a hit. Of some 83,000 tested, about 20% had one in any assay. Activity calls are given as the source filed them. The calls were made as follows: active = growth percent below 10; inactive = the rest.
Outcome codes: label 1 (active), label 0 (inactive)

compound=COc1ccc2nc3cc(Cl)ccc3c(Nc3cc(CN4CCCC4)c(O)c(CN4CCCC4)c3)c2n1 label_value="label 1"
compound=COc1cc(-c2nn(-c3cccc(NC(=O)NCCNS(=O)(=O)c4ccc(Cl)cc4)c3)cc2-c2ccncc2)ccc1Cl label_value="label 1"
compound=C[C@]12CC[C@@H]3c4ccc(O)cc4CC[C@H]3[C@@H]1CC[C@@H]2NS(=O)(=O)c1ccc(C(F)(F)F)cc1 label_value="label 0"
compound="COc1cc(CNC(=O)C2CSC3(C)c4ccccc4C(=O)N23)cc(OC)c1OC (configuration not stated)" label_value="label 0"
compound=CSc1ccc(-c2cc(-c3ccc(NC(=O)CCCN4CCCC4)cc3)nc(-c3ccc(NC(=O)CCCN4CCCC4)cc3)c2)cc1 label_value="label 0"
compound=CC(C)(C)c1ccc(S(=O)(=O)N[C@H]2CC[C@H]3[C@@H]4CCc5cc(O)ccc5[C@H]4CC[C@]23C)cc1 label_value="label 0"
compound="COc1cc(C2CC(c3ccc4c(c3)OCO4)=NN2c2ccccc2)cc(OC)c1OC (configuration not stated)" label_value="label 0"
compound=Nc1cc(-c2ccc(Cl)cc2)nn1-c1nc2ccccc2nc1Cc1ccccc1 label_value="label 0"
compound=COc1cc2cc(Oc3ccc(NC(=O)c4cc(C(F)(F)F)cc(C(F)(F)F)c4)cc3)c(C)nc2cc1OC label_value="label 0"
compound=O=C1c2c(c3c4ccccc4n(CCCCCCN4CCOCC4)c3c3[nH]c4ccccc4c23)C(=O)N1O label_value="label 0"
compound=COc1cc(-c2nc3ccccc3o2)cc(CN2CCCCC2)c1O label_value="label 0"
compound=O=C(N/N=C/c1ccc(Cl)cc1)c1ccccc1Nc1cccc(C(F)(F)F)c1 label_value="label 0"
compound=COc1ccc(/C=C2/SC(=S)NC2=O)c(OC)c1OC label_value="label 0"
compound=CC(C)(C)c1ccc(S(=O)(=O)N[C@H]2CC[C@H]3[C@@H]4CCc5cc(OS(=O)(=O)O)ccc5[C@H]4CC[C@]23C)cc1 label_value="label 0"
compound=COc1ccc(N=Nc2cc(OC)c(OC)c(OC)c2)cc1 label_value="label 0"
compound=COc1ccc2nc3cc(Cl)ccc3c(NCCCNCCO)c2c1 label_value="label 1"
compound=CCOC(=O)c1cc(C(=O)c2ccc(Cl)cc2)n2ccc(-c3cc[n+](CC(=O)c4ccc(OC)cc4)cc3)cc12 label_value="label 0"
compound="O=C(CCC(C(=O)c1ccccc1)c1ccccc1)c1ccccc1 (configuration not stated)" label_value="label 0"
compound=CNS(=O)(=O)Oc1ccc(-c2ccc3occc3c2)cc1 label_value="label 0"
compound=COc1ccc(-c2nn(-c3cccc(Cl)c3)cc2-c2c(C#N)c(=O)n3[nH]c(-c4ccc(C)cc4)nc3c2C#N)cc1 label_value="label 0"
compound=O=C(CN(C1CCCCC1)C1CCCCC1)Nc1ccc(S(=O)(=O)c2ccc(NC(=O)CN(C3CCCCC3)C3CCCCC3)cc2)cc1 label_value="label 1"
compound="COC1=CC(=O)OC(c2ccc(OC)cc2)C1 (configuration not stated)" label_value="label 0"
compound=CCOC(=O)N/N=C/c1ccc(OC)c(OC)c1 label_value="label 0"
compound=CC[C@@H]1NC(=O)[C@H]([C@H](O)[C@H](C)C/C=C/c2ccc(CN3C(=O)CCCC3=O)cc2)N(C)C(=O)[C@H](C(C)C)N(C)C(=O)[C@H](CC(C)C)N(C)C(=O)[C@H](CC(C)C)N(C)C(=O)[C@@H](C)NC(=O)[C@H](C)NC(=O)[C@H](CC(C)C)N(C)C(=O)[C@H](C(C)C)NC(=O)[C@H](CC(C)C)N(C)C(=O)CN(C)C1=O label_value="label 1"
compound=CC(=O)Nc1ccc(S(=O)(=O)c2ccnc3cc(Cl)ccc23)cc1 label_value="label 0"
compound="N#CC1=C(N)Oc2cc(N)ccc2C1c1cccnc1 (configuration not stated)" label_value="label 0"
compound=CCOc1ccccc1/C=N/N1CCCCCC1 label_value="label 0"
compound="COc1cc(/C=C2\\CCCC3=C2N=C2SC(C)=CN2C3c2cc(OC)c(OC)c(OC)c2)cc(OC)c1OC (configuration not stated)" label_value="label 1"
compound=CCn1c(SCCc2ccccc2)nnc1-c1nn(-c2ccc(Cl)cc2Cl)c(-c2ccc(Cl)cc2)c1C label_value="label 0"
compound=COc1ccc(/C=C/c2nnc(/C=C/c3ccc(OC)c(OC)c3)o2)cc1OC label_value="label 0"
compound="CC(=O)OC1CC2C(C)(C)CCC[C@]2(C)C2=C1C(O)=C(C(C)C)C(=O)C2=O (some centres not stated)" label_value="label 1"
compound=COCCn1cc(-c2nc(-c3cccnc3)cs2)c2cc(F)ccc21 label_value="label 0"
compound=CCn1c(CSc2nc3ccccc3c(=O)n2CCc2ccccc2)n[nH]c1=S label_value="label 0"
compound=N#Cc1c(-c2ccc(Cl)cc2)n(O)c2ccccc12 label_value="label 1"
compound=C=CCn1c(SCC(=O)Nc2ccc(C(=O)/C=C/c3ccc(OC)cc3)cc2)nnc1-c1ccc(OC)c(OC)c1 label_value="label 0"
compound=CCC(CC)n1c(C)cc(=O)n1C(CC)CC label_value="label 0"
compound=COC(=O)c1cc2oc(/C=C3/SC(=S)N(N)C3=O)cc2n1Cc1ccccc1 label_value="label 0"
